Attribution: patent US20180072997A1

# MEASUREMENT_DESCRIPTION: Compound cytotoxicity, XTT-based colorimetric assay
# Format: cell-based
# RUN_CONDITIONS: human, uninfected MT2 cells, day 4, XTT
READOUT: CC50 at 4 days (µM)
Give bare numbers, in µM.

Example entries begin here.
COc1ccc(N(C)C(=O)[C@H](Cc2ccccc2)Nc2ccnc(N[C@@H](Cc3ccccc3)C(=O)N(C)c3ccc(OC)cc3)n2)cc1 [Example 145]; 19.1
CN(C(=O)[C@H](Cc1ccccc1)Nc1nccc(-c2ccnc(N[C@@H](Cc3ccccc3)C(=O)N(C)c3ccc4scnc4c3)n2)n1)c1ccc2scnc2c1 [Example 135]; 0.5

Note: attention shifts to another entry.
Which CC50 at 4 days reading was recorded for the molecule CN(C(=O)[C@H](Cc1ccccc1)NC(=O)NS(=O)(=O)N[C@@H](Cc1ccccc1)C(=O)N(C)c1ccc2c(c1)OCO2)c1ccc2c(c1)OCO2 [Example 19] ?
99.5

---

# System: uninfected MT2 cells
# MEASUREMENT_DESCRIPTION: Compound cytotoxicity, XTT-based colorimetric assay
# Assay type: cell-based
# RUN_CONDITIONS: day 4, XTT
READOUT: CC50
For clarity, give the value followed by its unit.

Example entries begin here.
COc1ccc(N(C)C(=O)[C@H](Cc2cc(F)cc(F)c2)NC(=O)C(C)n2c(=O)n(C(C)C(=O)N[C@@H](Cc3cc(F)cc(F)c3)C(=O)N(C)c3ccc(OC)cc3)c3ccccc32)cc1 (single isomer, unassigned) [Example 133]; 13.9 µM
COc1ccc(N(C)C(=O)[C@H](Cc2ccccc2)NC(=O)C=C(C)CC(=O)N[C@@H](Cc2ccccc2)C(=O)N(C)c2ccc(OC)cc2)cc1 (single isomer, unassigned) [Example 114]; 27.1 µM
COc1ccc(N(C)C(=O)[C@H](Cc2ccccc2)NC(=O)C(C)n2c(=O)n(C(C)C(=O)N[C@@H](Cc3ccccc3)C(=O)N(C)c3ccc(OC)cc3)c3ccccc32)cc1 (single isomer, unassigned) [Example 134]; 10.8 µM

Note: attention shifts to another entry.
Which CC50 reading was recorded for the molecule C=CCCN(C(=O)[C@H](Cc1cc(F)cc(F)c1)NC(=O)NS(=O)(=O)N[C@@H](Cc1cc(F)cc(F)c1)C(=O)N(CCC=C)c1ccc2scnc2c1)c1ccc2scnc2c1 (single isomer, unassigned) [Example 142] ?
17.4 µM

---

For each of the molecules below, state its log10 CC50 at 4 days.
# MEASUREMENT_DESCRIPTION: Compound cytotoxicity, XTT-based colorimetric assay
# Format: cell-based
# RUN_CONDITIONS: human, uninfected MT2 cells, day 4, XTT
In plain terms, each number is the log10 of measured CC50 at 4 days in µM.

Example entries begin here.
C=CCCN(C(=O)[C@H](Cc1cc(F)cc(F)c1)NC(=O)NS(=O)(=O)N[C@@H](Cc1cc(F)cc(F)c1)C(=O)N(CC=C)c1ccc(OC)cc1)c1ccc(OC)cc1 [Example 138]; 1.11
COc1ccc(N(C)C(=O)[C@H](Cc2ccccc2)NC(=O)c2cc(C(=O)N[C@@H](Cc3ccccc3)C(=O)N(C)c3ccc(OC)cc3)ncn2)cc1 [Example 112]; 0.11
CCN(C(=O)[C@H](Cc1cc(F)cc(F)c1)NC(=O)CN1c2ccccc2N(CC(=O)N[C@@H](Cc2cc(F)cc(F)c2)C(=O)N(CC)c2ccc3oc(=O)n(Cc4ccccc4)c3c2)S1(=O)=O)c1ccc2oc(=O)n(Cc3ccccc3)c2c1 [Example 153]; 0.49
COc1ccc(N(C)C(=O)[C@H](Cc2ccccc2)NC(=O)c2ccc(F)c(C(=O)N[C@@H](Cc3ccccc3)C(=O)N(C)c3ccc(OC)cc3)c2)cc1 [Example 106]; 0.80

Fill in log10 CC50 at 4 days for each of the 2 molecules listed.
1. COc1ccc(N(C)C(=O)[C@H](Cc2cc(F)cc(F)c2)NC(=O)NS(=O)(=O)N[C@@H](Cc2cc(F)cc(F)c2)C(=O)N(C)c2ccc(OC)c(F)c2)cc1F [Example 233]
2. COc1ccc(N(C)C(=O)[C@H](Cc2ccccc2)NC(=O)CCSCCC(=O)N[C@@H](Cc2ccccc2)C(=O)N(C)c2ccc(OC)cc2)cc1 [Example 41]

1. 1.55
2. 1.36

---

For each of the compounds below, state its CC50 at 4 days.
# MEASUREMENT_DESCRIPTION: Compound cytotoxicity, XTT-based colorimetric assay
# Format: cell-based
# RUN_CONDITIONS: human, uninfected MT2 cells, day 4, XTT

Example entries begin here.
COc1ccc(N(C)C(=O)[C@H](Cc2ccccc2)NC(=O)CC2(CC(=O)N[C@@H](Cc3ccccc3)C(=O)N(C)c3ccc(OC)cc3)CCCC2)cc1; ≥ 50 µM
CN(C(=O)[C@H](Cc1ccccc1)NC(=O)NS(=O)(=O)N[C@@H](Cc1ccccc1)C(=O)N(C)c1ccccc1)c1ccccc1; ≥ 100 µM
COc1ccc(N(C)C(=O)[C@H](Cc2ccccc2)NC(=O)c2cc(C)cc(C(=O)N[C@@H](Cc3ccccc3)C(=O)N(C)c3ccc(OC)cc3)c2)cc1; ≥ 33.3 µM
CCOc1ccc(N(CC)C(=O)[C@H](Cc2ccccc2)NC(=O)NS(=O)(=O)N[C@@H](Cc2ccccc2)C(=O)N(CC)c2ccc(OCC)cc2)cc1; ≥ 33.3 µM
COc1ccc(N(C)C(=O)[C@H](Cc2cc(F)cc(F)c2)NC(=O)c2cccc(C(=O)N[C@@H](Cc3cc(F)cc(F)c3)C(=O)N(C)c3ccc(OC)cc3)c2)cc1; 10.8 µM

Which CC50 at 4 days reading was recorded for the compound C=CCCN(C(=O)[C@H](Cc1cc(F)cc(F)c1)NC(=O)NS(=O)(=O)N[C@@H](Cc1cc(F)cc(F)c1)C(=O)N(CCC=C)c1ccc(OC)cc1)c1ccc(OC)cc1 ?
18.8 µM

---

# MEASUREMENT_DESCRIPTION: Compound cytotoxicity, XTT-based colorimetric assay
# Assay type: cell-based
# RUN_CONDITIONS: human, uninfected MT2 cells, day 4, XTT
READOUT: CC50 at 4 days (µM)
Numbers only, in µM.

Example entries begin here.
COc1ccc(N(C)C(=O)[C@H](Cc2ccccc2)NC(=O)Cc2ccc(CC(=O)N[C@@H](Cc3ccccc3)C(=O)N(C)c3ccc(OC)cc3)cc2)cc1; 11.1
CN(C(=O)[C@H](Cc1cc(F)cc(F)c1)NC(=O)/C=C\C(=O)N[C@@H](Cc1cc(F)cc(F)c1)C(=O)N(C)c1ccc2scnc2c1)c1ccc2scnc2c1; 12.6

Which CC50 at 4 days reading was recorded for the molecule COc1ccc(N(C)C(=O)[C@H](Cc2ccccc2)NC(=O)CN2CCN(CC(=O)N[C@@H](Cc3ccccc3)C(=O)N(C)c3ccc(OC)cc3)C2=O)cc1 ?
30.9

---

# MEASUREMENT_DESCRIPTION: Compound cytotoxicity, XTT-based colorimetric assay
# Type: cell-based
# RUN_CONDITIONS: human, uninfected MT2 cells, day 4, XTT
For each of the compounds below, state its CC50 at 4 days.
Numbers only, in µM.

Fill in CC50 at 4 days for each of the 2 compounds listed.
1. C=CCN(C(=O)[C@H](Cc1cc(F)cc(F)c1)NC(=O)NS(=O)(=O)N[C@@H](Cc1cc(F)cc(F)c1)C(=O)N(CC=C)c1ccc(OC)cc1)c1ccc(OC)cc1 [Example 120]
2. CCN(C(=O)[C@H](Cc1cc(F)cc(F)c1)NC(=O)NS(=O)(=O)N[C@@H](Cc1cc(F)cc(F)c1)C(=O)N(CC)c1ccc(NC(=O)OC)cc1)c1ccc(NC(=O)OC)cc1 [Example 149]

1: 23.3; 2: 79.5

---

# MEASUREMENT_DESCRIPTION: Compound cytotoxicity, XTT-based colorimetric assay
# Assay type: cell-based
# RUN_CONDITIONS: human, uninfected MT2 cells, day 4, XTT
Binary call on CC50 at 4 days with cut-off 30 µM: strictly below means t, and equality or higher means f.

Reference set, count: 5
CN(C(=O)[C@H](Cc1cc(F)cc(F)c1)NC(=O)NS(=O)(=O)N[C@@H](Cc1cc(F)cc(F)c1)C(=O)N(C)c1ccc(C2CC2)cc1)c1ccc(C2CC2)cc1; t
Cc1nc2cc(N(C)C(=O)[C@H](Cc3cc(F)cc(F)c3)NC(=O)NS(=O)(=O)N[C@@H](Cc3cc(F)cc(F)c3)C(=O)N(C)c3ccc4sc(C)nc4c3)ccc2s1; f
CN(C(=O)[C@H](Cc1cc(F)cc(F)c1)NC(=O)CN1c2ccccc2N(CC(=O)N[C@@H](Cc2cc(F)cc(F)c2)C(=O)N(C)c2ccc3sncc3c2)S1(=O)=O)c1ccc2sncc2c1; f
CN(C(=O)[C@H](Cc1cc(F)cc(F)c1)NC(=O)CN1c2ccccc2N(CC(=O)N[C@@H](Cc2cc(F)cc(F)c2)C(=O)N(C)c2ccc3c(c2)ncn3C)S1(=O)=O)c1ccc2c(c1)ncn2C; f
COc1ccc(N(C)C(=O)[C@H](Cc2cc(F)cc(F)c2)NC(=O)Cn2c(=O)n(CC(=O)N[C@@H](Cc3cc(F)cc(F)c3)C(=O)N(C)c3ccc(OC)cc3)c3cc(OC)ccc32)cc1; t

CC50 at 4 days strictly < 30 µM for this compound? CN(C(=O)[C@H](Cc1cc(F)cc(F)c1)NC(=O)NS(=O)(=O)N[C@@H](Cc1cc(F)cc(F)c1)C(=O)N(C)c1ccc2scnc2c1)c1ccc2scnc2c1
f

CC50 at 4 days strictly < 30 µM for this compound? Cc1ccc(N(C)C(=O)[C@H](Cc2cc(F)cc(F)c2)NC(=O)NS(=O)(=O)N[C@@H](Cc2cc(F)cc(F)c2)C(=O)N(C)c2ccc(C)cn2)nc1
f

CC50 at 4 days strictly < 30 µM for this compound? Cc1ccc(N(C)C(=O)[C@H](Cc2cc(F)cc(F)c2)NC(=O)CN2c3ccccc3N(CC(=O)N[C@@H](Cc3cc(F)cc(F)c3)C(=O)N(C)c3ccc(C)nc3)S2(=O)=O)cn1
f

CC50 at 4 days strictly < 30 µM for this compound? COc1ccc(N(C)C(=O)[C@H](Cc2ccccc2)Nc2nc(N)nc(N[C@@H](Cc3ccccc3)C(=O)N(C)c3ccc(OC)cc3)n2)cc1
f

CC50 at 4 days strictly < 30 µM for this compound? COc1ccc(N(C)C(=O)[C@H](Cc2cc(F)cc(F)c2)NC(=O)NS(=O)(=O)N[C@@H](Cc2ccccc2)C(=O)N(C)c2ccc(OC)cc2)cc1
f

CC50 at 4 days strictly < 30 µM for this compound? COc1ccc(N(C)C(=O)[C@H](Cc2ccccc2)NC(=O)c2cncc(C(=O)N[C@@H](Cc3ccccc3)C(=O)N(C)c3ccc(OC)cc3)c2)cc1
t

CC50 at 4 days strictly < 30 µM for this compound? CN(C(=O)[C@H](Cc1cc(F)cc(F)c1)NC(=O)c1cccc(C(=O)N[C@@H](Cc2cc(F)cc(F)c2)C(=O)N(C)c2ccc3scnc3c2)c1Cl)c1ccc2scnc2c1
f

CC50 at 4 days strictly < 30 µM for this compound? COc1ccc(N(C)C(=O)[C@H](Cc2ccccc2)NC(=O)NS(=O)(=O)N[C@@H](Cc2ccccc2)C(=O)N(C)c2ccc3c(c2)OCO3)cc1
f

CC50 at 4 days strictly < 30 µM for this compound? O=C(N[C@@H](Cc1cc(F)cc(F)c1)c1ncccc1Br)NS(=O)(=O)N[C@@H](Cc1cc(F)cc(F)c1)c1ncccc1Br
f
